Measured values drawn from patent US20220040297A1 for this set.

Biological target: CD3ε homodimer protein (human, UniProt P07766 23-126, limits assumed)
Sequence (P07766 23-126 limits assumed): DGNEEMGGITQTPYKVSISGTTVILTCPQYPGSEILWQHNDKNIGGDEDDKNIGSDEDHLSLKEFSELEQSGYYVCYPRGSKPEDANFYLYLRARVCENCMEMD
Experiment: SPR, immobilized CD3ε homodimer;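 also: biacore T200 surface plasmon resonance at 25 °C, antibody variants flowed as analytes over amine-coupled CD3ε homodimer on a CM4 chip, variant binding amount divided by that of GLS3000 antibody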
endpoint: ratio of amounts bound (vs GLS3000)
Field format: numeric only.

GLS3000 R24T (antibody, name in Kabat numbering, V domains shown, one-arm format as m2) VH: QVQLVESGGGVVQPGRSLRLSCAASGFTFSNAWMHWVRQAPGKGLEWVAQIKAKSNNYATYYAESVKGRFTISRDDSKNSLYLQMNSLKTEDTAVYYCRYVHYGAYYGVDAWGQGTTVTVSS VL: DIVMTQSPLSLPVTPGEPASISCTSSQSLVHSNRNTYLHWYQQKPGQAPRLLIYKVSNRFSGVPDRFSGSGSGTDFTLKISRVEAEDVGVYYCGQGTQVPYTFGQGTKLEIK = 0.88

Task: # query: ratio of amounts bound (vs GLS3000) of entry GLS3000 V27cS (antibody, name in Kabat numbering, V domains shown, one-arm format as m2) VH: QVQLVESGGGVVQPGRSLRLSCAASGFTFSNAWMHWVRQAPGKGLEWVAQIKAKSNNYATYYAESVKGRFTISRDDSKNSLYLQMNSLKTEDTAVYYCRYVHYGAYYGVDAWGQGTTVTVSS VL: DIVMTQSPLSLPVTPGEPASISCRSSQSLSHSNRNTYLHWYQQKPGQAPRLLIYKVSNRFSGVPDRFSGSGSGTDFTLKISRVEAEDVGVYYCGQGTQVPYTFGQGTKLEIK
Result: 0.51

Task: # query: ratio of amounts bound (vs GLS3000) of entry GLS3000 R29S (antibody, name in Kabat numbering, V domains shown, one-arm format as m2) VH: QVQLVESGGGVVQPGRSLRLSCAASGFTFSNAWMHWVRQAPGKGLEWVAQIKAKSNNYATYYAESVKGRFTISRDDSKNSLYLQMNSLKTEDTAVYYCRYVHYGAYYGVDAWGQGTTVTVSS VL: DIVMTQSPLSLPVTPGEPASISCRSSQSLVHSNSNTYLHWYQQKPGQAPRLLIYKVSNRFSGVPDRFSGSGSGTDFTLKISRVEAEDVGVYYCGQGTQVPYTFGQGTKLEIK
Result: 0.68
